system: Human neural stem cells (hNSCs); test: Neuronal differentiation of human neural stem cells (TUJ-1 staining); format: cell-based; details: Homo sapiens, Neural stem cell; agent alone; concentration response curve 0.01 μM to 31.6 μM (antalarmin to 3.16 μM); modafinil batch of FIG. 1-3; read-out: EC50, neuronal differentiation, agent used alone

COMPOUND: O=C1CC2(CCCC2)CC(=O)N1CCCCN1CCN(c2ncccn2)CC1 [buspirone]
EC50: 8.4 µM

COMPOUND: CCCCN(CC)c1nc(C)nc2c1c(C)c(C)n2-c1c(C)cc(C)cc1C [antalarmin]
EC50: ~34.9 µM

COMPOUND: NCCc1c[nH]c2ccc(O)cc12 [serotonin, 5-hydroxytryptamine]
EC50: ~6.9 µM

COMPOUND: CC(=O)NCCCS(=O)(=O)O [acamprosate]
EC50: ~39.2 µM

COMPOUND: CN1C(=O)COc2c(C(=O)NC3CN4CCC3CC4)cc(Cl)cc21 (centres unmarked) [azasetron]
EC50: ~9.1 µM
